- SYSTEM UNDER TEST: EPHB1 (UniProt P54762)
- Sequence (P54762 whole entry, looked up): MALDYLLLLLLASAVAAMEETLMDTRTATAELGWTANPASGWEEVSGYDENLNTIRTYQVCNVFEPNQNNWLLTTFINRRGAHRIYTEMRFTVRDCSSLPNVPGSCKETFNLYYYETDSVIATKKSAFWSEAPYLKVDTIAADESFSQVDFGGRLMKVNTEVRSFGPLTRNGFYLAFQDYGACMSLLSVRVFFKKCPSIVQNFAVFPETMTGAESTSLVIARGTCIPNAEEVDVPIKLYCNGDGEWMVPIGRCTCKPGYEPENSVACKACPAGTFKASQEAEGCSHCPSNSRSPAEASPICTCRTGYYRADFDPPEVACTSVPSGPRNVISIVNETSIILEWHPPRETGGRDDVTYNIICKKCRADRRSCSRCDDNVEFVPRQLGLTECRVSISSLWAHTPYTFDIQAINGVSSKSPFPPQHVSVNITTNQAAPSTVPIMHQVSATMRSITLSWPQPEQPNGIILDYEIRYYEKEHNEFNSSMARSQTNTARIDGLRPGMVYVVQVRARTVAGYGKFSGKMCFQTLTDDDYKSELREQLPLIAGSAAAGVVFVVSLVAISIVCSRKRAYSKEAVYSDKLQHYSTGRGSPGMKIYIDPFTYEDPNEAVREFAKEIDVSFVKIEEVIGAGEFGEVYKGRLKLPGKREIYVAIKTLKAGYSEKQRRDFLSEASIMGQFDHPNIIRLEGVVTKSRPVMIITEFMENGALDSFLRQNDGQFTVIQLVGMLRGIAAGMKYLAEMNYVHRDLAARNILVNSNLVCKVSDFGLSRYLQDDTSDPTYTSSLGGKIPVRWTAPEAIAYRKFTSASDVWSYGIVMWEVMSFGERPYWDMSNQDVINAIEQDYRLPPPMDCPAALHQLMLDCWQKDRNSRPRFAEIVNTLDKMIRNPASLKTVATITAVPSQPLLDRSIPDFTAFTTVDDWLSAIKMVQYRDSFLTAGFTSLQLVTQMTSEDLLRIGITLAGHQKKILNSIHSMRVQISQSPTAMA
- ASSAY SUMMARY: phosphorylation enrichment, bacterial display (enrichment ratio); higher = better substrate or ligand; peptides without Tyr show the background;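 also: 11-residue human phosphosite peptides and single-mutation variants displayed on the E. coli surface, counted by deep sequencing, each peptide's frequency after selection divided by its frequency in the unselected input library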;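 also: frequency after pTyr selection over input frequency; kinase dosed for 20-30% of maximal phosphorylation in three min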
Where phosphorylation enrichment equals or exceeds 0.5, the correct label is true (1); where it does not, the label is false (0).

GLCSFYETSKM [MAGED2_Y449_R446C_YF]: true (1)

Say whether YGAHNHHPLPV [OAT_Y55_Y55H] shows phosphorylation enrichment of 0.5 or more.
false (0)

For KVGNEYVTKGQ [MYH7_Y410] then?
false (0)

Subsequent entry: RTTIHYNYMCN [TP53_Y234_C229R]
true (1)

Same question, HFGCVYFGTLL [MET_Y1093_H1094Y_YF] this time
true (1)

Then IGNGFYFRVFS [MYBPC3_Y1136_YF] ?
true (1)

What about this sequence? RKEAQYMLENE [SLC16A6_Y224]
true (1)

Quick one: PEACDYGLGGG [GSTO1_Y239]
true (1)

Also, FLGRDYLETLM [DUS3L_Y610_YF] please.
false (0)

----------
- SYSTEM UNDER TEST: FGFR1 (UniProt P11362)
- Sequence (P11362 whole entry, looked up): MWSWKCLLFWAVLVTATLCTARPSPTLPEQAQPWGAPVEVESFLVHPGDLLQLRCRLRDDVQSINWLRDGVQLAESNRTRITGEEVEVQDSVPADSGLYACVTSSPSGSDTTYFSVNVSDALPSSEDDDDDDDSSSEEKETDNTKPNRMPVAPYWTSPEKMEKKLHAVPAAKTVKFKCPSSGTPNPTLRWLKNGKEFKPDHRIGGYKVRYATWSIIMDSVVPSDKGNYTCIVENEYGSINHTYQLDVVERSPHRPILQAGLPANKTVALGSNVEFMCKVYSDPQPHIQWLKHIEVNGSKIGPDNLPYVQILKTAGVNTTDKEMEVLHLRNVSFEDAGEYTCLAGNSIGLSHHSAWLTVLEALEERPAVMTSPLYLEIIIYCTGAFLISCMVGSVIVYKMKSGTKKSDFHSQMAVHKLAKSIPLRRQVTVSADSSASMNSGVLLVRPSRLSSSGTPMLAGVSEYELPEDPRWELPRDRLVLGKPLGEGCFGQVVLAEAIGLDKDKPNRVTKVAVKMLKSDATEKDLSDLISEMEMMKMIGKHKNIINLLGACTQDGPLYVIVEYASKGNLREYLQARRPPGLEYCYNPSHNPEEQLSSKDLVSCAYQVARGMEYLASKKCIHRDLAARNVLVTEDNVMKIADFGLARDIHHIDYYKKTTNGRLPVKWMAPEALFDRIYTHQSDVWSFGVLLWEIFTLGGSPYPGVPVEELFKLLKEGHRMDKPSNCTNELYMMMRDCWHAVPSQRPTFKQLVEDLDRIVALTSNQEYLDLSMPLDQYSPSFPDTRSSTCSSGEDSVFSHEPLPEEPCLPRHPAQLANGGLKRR
- ASSAY SUMMARY: phosphorylation enrichment, bacterial display (enrichment ratio); higher = better substrate or ligand; peptides without Tyr show the background
Label Y when phosphorylation enrichment is at or above 0.5; anything below gets N.

Please review the entries below; each comes with its answer.
REQREYLDQLN [CCDC88B_Y1277]: Y
NTFENYWPFFQ [GATM_Y103_K102N_YF]: Y
IDGLEYLHSPG [STK11_Y166_Q170P]: N
TARREYMHSPS [CPOX_Y429_W427R]: N
IALSKYGRVKW [FGF6_Y186_R191W]: N

Determine whether this sequence has phosphorylation enrichment no lower than 0.5: NLNGKYFKPRA [ANGPTL3_Y417_N418Y_YF]
N

Another sequence: KYVKMYDNHQL [MYO9A_Y203]
Y

Could you do the same for FLNSIYKSRDE [ROS1_Y2227] , please?
N

Now the sequence KLPFLYDDPFS [GPX2_Y127_P126L_YF]
Y

Please give the result for GDFFRYLAEVA [YWHAG_Y133_YF] too.
Y

Also LLLLFCVVRYC [MPZ_Y177_Y177C] ?
Y

Input SSYDTYHLSRE [KIR3DL2_Y253_I252T]
Y

Also, GTHCHYKAPIV [FZD9_Y569_T573I] please.
Y

Next entry: APEVIYATPGA [ABLtide_2014]
Y

----------
- SYSTEM UNDER TEST: FGFR1 (UniProt P11362)
- ASSAY SUMMARY: phosphorylation enrichment, bacterial display (enrichment ratio); higher = better substrate or ligand; peptides without Tyr show the background
Please mark label 1 if the recorded phosphorylation enrichment is equal to or greater than 0.8, and label 0 if it falls below.

Known results for sequences:
MSSHHYDFKKF [ZNF445_Y428_YF]: label 0
QGCGIYKDYYR [PLA2G2D_Y82_S80G]: label 1
GGCQEYTGAPY [NAXD_Y85]: label 0

Could you now look at the following sequence, please?
Please tell me: is the sequence GGSTFYIDTNA [ACTL6A_Y69_P66S_YF] at or over 0.8 in terms of phosphorylation enrichment?
label 0

----------
Would you mind telling me the reported phosphorylation enrichment of each entry?
- SYSTEM UNDER TEST: Fes (UniProt P07332)
- Sequence (P07332 whole entry, looked up): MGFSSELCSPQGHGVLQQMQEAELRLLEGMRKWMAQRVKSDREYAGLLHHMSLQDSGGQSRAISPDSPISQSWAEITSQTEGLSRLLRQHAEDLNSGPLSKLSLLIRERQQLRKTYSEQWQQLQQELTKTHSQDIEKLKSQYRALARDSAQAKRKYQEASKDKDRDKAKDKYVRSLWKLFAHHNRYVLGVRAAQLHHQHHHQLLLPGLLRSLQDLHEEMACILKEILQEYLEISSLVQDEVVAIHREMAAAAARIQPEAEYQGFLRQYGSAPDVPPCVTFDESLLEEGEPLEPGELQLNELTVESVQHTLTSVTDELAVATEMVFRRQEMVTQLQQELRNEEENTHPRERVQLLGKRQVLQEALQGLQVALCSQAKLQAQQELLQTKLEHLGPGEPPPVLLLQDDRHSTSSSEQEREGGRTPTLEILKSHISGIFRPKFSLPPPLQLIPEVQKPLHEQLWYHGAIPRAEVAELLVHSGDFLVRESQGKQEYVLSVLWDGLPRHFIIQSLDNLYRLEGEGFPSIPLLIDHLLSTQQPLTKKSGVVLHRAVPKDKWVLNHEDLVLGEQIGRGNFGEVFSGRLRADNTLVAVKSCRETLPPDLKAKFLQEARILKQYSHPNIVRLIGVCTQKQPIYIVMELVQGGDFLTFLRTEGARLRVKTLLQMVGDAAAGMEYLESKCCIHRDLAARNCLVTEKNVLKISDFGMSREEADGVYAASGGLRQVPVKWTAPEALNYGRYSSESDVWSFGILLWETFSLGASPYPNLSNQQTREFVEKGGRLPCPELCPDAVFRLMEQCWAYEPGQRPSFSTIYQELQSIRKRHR
- ASSAY SUMMARY: phosphorylation enrichment, bacterial display (enrichment ratio); higher = better substrate or ligand; peptides without Tyr show the background
Answers are plain numbers.

Some solved cases for reference:
IDGLEYLHSPG [STK11_Y166_Q170P]: 0.69
KFRREYILSLE [GPC3_Y299_W296R_YF]: 0.772
FIGVTYKNKED [PDGFRA_Y993_E996K_YF]: 0.922
FEKNVYVDKNL [PTCHD3_Y688]: 0.894

Required: phosphorylation enrichment, one value per sequence below.
1. VKFLGYPPPEI [KDR_Y357_A352V_YF]
2. NFHRGYHLQVL [CD200R1L_Y138]
3. PPAPRYHHLAV [LZTR1_Y119_S122L]
4. RALCHYYKLNI [ETV6_Y401_R399C]
5. DRLASYPEKVR [KRT13_Y118_L119P]

[0.974, 0.835, 0.964, 1.99, 0.57]

Please state phosphorylation enrichment for every sequence in the list that follows.
1. WFPSTYVEEDE [VAV3_Y842]
2. SVTCTYSPALS [TP53_Y126_N131S]
3. FKELVYETVRV [FSHB_Y76]
4. NLNGKYFKPRA [ANGPTL3_Y417_N418Y_YF]
5. TTKAKYKTPIY [PLD2_Y573_T577I]

1: 1.5; 2: 1.63; 3: 6.92; 4: 0.56; 5: 0.928

Below is a list of sequences. For each, state its recorded phosphorylation enrichment.
1. FTFDPYSEEEP [IL2RB_Y387_D391E_YF]
2. DDFNLYINVKL [MTHFD1_Y52_S49F]
3. SSYDTYHLSRE [KIR3DL2_Y253_I252T]
4. REDIFYTSKLW [AKR1C2_Y81]
5. HNELFYEEAEH [VANGL1_Y345_YF]
6. SSLMKYQQNVS [EGFEM1P_Y160_P157L]
7. RLLVVYHWTQR [HBD_Y36_P37H]

1. 1.49
2. 1.67
3. 0.713
4. 1.12
5. 1.35
6. 0.571
7. 1.58

// for each sequence below, give its phosphorylation enrichment
1. GGDQPYSGAGD [TYRO3_Y828_R824G]
2. INMKKYCKKDF [NTN1_Y490_YF]
3. ERDYTYDELLN [EIF2S2_Y176_E177D]

1. 0.791
2. 0.948
3. 1.27

// returns reported phosphorylation enrichment for input GDFSRYDEGSG [RECQL5_Y484]
1.16

----------
- SYSTEM UNDER TEST: Hck (UniProt P08631)
- ASSAY SUMMARY: phosphorylation enrichment, bacterial display (enrichment ratio); higher = better substrate or ligand; peptides without Tyr show the background
// label = satisfied if phosphorylation enrichment is not less than 0.5, otherwise not satisfied

// below: answered sequences
VIERSYTSADG [DHCR7_Y382_C380R]: not satisfied
PEAALYGRFTI [FYN_Y440]: satisfied

In plain terms: is recorded phosphorylation enrichment at least 0.5 for ITLPIYTKGSE [ANK2_Y1455_E1458G] ?
satisfied

Same read-out for IKKLIYVYLVI [JAGN1_Y42_H44Y] ?
not satisfied

Another: FPCSVYVPDEW [INSR_Y1011]
satisfied

----------
Field: phosphorylation enrichment. Provide a value for each of the sequences that follow.
- SYSTEM UNDER TEST: Jak2 (UniProt O60674)
- Sequence (O60674 whole entry, looked up): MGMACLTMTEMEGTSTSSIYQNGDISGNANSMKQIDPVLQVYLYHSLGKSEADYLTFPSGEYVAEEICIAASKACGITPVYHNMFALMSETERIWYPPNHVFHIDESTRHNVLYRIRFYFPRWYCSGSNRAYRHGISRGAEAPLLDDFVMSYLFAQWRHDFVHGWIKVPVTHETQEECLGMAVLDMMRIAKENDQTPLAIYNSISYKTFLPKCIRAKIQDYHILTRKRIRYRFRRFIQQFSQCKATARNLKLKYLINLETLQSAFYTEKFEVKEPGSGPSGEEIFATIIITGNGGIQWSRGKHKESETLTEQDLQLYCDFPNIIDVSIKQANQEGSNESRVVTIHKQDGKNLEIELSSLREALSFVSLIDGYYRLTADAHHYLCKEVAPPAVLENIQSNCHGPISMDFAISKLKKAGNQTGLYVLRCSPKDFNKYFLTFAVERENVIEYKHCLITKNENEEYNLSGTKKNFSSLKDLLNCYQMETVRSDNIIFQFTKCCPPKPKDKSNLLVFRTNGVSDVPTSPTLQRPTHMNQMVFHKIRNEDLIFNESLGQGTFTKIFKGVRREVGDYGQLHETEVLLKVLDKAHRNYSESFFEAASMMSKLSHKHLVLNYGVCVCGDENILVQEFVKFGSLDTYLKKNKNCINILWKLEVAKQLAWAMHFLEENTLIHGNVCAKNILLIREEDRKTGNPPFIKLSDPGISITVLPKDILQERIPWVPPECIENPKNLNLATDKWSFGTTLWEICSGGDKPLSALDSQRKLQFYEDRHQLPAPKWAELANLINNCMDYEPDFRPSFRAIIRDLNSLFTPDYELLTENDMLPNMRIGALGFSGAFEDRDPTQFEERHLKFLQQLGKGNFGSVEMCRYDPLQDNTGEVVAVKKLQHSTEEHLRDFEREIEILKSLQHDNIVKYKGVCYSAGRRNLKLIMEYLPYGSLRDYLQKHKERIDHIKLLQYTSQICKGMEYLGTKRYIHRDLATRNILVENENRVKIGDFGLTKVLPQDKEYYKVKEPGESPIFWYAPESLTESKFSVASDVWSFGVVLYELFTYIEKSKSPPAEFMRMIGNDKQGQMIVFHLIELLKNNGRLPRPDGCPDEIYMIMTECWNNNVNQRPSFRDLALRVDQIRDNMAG
- ASSAY SUMMARY: phosphorylation enrichment, bacterial display (enrichment ratio); higher = better substrate or ligand; peptides without Tyr show the background
One number for each entry.

Record excerpt, results attached:
LAVNPYGPPDL: 1.03
PEACDYGLGGG [GSTO1_Y239]: 1.11
SIKNKYVTALY [KCNH2_Y611_D609N]: 0.605
KILPEYLSNWT [AIFM1_Y347]: 0.983
KDHPDYEFQPR [SOX9_Y172_K173E_YF]: 0.665

List the reported phosphorylation enrichment of each sequence below.
1. SQETYYRVSNM [ABCD1_Y181_Q178E]
2. GAMGHYVLAER [HFE_Y342]

1: 3.85; 2: 0.511

List the reported phosphorylation enrichment of each sequence below.
1. SLYPGYNFRYA [P2RX7_Y291]
2. DMLYQYLKQIE [RPAP3_Y569]
3. IDGLEYLHSPG [STK11_Y166_Q170P]
4. IVRSLYEDVED [VHL_Y185_L188V]
5. NTFENYWPFFQ [GATM_Y103_K102N_YF]
6. YDEYRYRSFIK [CFTR_Y517_V520F]

[0.495, 0.83, 0.746, 1.21, 3.43, 1.14]

----------
- SYSTEM UNDER TEST: MERTK (UniProt Q12866)
- Sequence (Q12866 whole entry, looked up): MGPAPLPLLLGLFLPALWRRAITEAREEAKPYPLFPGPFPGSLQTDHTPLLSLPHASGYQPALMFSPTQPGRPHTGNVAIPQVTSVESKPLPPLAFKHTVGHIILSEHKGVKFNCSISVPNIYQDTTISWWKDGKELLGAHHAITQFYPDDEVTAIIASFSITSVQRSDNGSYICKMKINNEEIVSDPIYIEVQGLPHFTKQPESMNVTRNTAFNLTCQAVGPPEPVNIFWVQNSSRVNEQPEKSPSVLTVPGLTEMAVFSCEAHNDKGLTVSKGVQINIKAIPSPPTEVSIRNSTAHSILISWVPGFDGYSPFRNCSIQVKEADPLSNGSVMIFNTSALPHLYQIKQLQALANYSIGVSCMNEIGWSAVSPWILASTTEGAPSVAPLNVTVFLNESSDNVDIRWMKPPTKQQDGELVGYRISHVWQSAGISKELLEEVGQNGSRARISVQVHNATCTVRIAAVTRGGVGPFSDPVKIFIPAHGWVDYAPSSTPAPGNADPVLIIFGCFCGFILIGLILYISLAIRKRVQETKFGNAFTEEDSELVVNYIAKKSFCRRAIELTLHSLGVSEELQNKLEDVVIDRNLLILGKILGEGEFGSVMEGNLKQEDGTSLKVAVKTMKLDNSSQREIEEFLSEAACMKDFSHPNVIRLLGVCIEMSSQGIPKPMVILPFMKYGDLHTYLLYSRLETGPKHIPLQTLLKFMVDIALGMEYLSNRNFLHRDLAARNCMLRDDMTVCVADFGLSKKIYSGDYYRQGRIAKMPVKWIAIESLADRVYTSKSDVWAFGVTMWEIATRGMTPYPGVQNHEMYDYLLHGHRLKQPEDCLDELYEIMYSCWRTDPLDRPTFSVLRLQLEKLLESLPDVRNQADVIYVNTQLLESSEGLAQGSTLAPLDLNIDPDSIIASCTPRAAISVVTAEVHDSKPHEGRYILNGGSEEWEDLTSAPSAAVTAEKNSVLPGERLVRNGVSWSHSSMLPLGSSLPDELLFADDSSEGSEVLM
- ASSAY SUMMARY: phosphorylation enrichment, bacterial display (enrichment ratio); higher = better substrate or ligand; peptides without Tyr show the background
RESULT TYPE: phosphorylation enrichment
Answers are plain numbers.

Previously resolved entries follow.
GFQPDYGQPAG [SYP_Y278_YF]: 0.404
DLFRLYICVKE [ARID1B_Y1091_V1092I]: 0.391
DCLASYLDKVR [KRT10_Y160_R156C]: 0.4
SARFRYLMAEK [LDHB_Y173]: 0.397
FADIAYNYRHR [PAH_Y166_G171R]: 0.398

We next turn to a different sequence, shown below.
Give its phosphorylation enrichment value. Item: LNWIYYKDQTG [RS1_Y166]
0.787
